Field: %Inh. Provide a value for each of the compounds that follow.
- Tested on: ROCK1
- Measurement Conditions: concentration: 1 μM, replicates: in singlicate; n = 1;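 further: KINOMEscan kinase panel screen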
Just the number in %, nothing appended.

Lab note: measured %Inh of CS(=O)(=O)c1ccc(-c2c(-c3ncn[nH]3)sc(N3CCOCC3)c2C#N)cc1 was 0

Lab note: measured %Inh of CN1C(=O)C(Nc2ccc(Cl)c(C(=O)O)c2)=C(c2ccc(Cl)cc2)C1=O was 5

Lab note: measured %Inh of Cc1cc(N2Cc3ccccc3C2)nc(Nc2ccc(S(=O)(=O)N3CCOCC3)cc2)n1.Cl was 0

Lab note: measured %Inh of O=C(O)COc1ncnc2cc(-c3ccc4[nH]ncc4c3)sc12 was 27

Lab note: measured %Inh of CCCc1ccc(S(=O)(=O)NC2CCN(c3ccnc(Nc4ccc(F)cc4)n3)C2)cc1 (stereo not drawn) was 11

Lab note: measured %Inh of Cc1ccc(NC(=O)Nc2cc(C(C)(C)C)nn2-c2ccccc2)cc1 was 15

Lab note: measured %Inh of O=c1cc(N2CCOCC2)nc2n(Cc3cccc(Cl)c3Cl)ccn12 was 0

Lab note: measured %Inh of COc1cccc(-c2cc(-c3c[nH]nc3-c3ccccn3)ccn2)c1 was 0

Lab note: measured %Inh of COc1ccc(CNC(=O)NC2CCN(c3ccnc(Nc4cc(OC)c(OC)c(OC)c4)n3)C2)cc1 (stereo not drawn) was 20

---

Field: %Inh. Provide a value for each of the compounds that follow.
- System: DCAMKL2
- Construct: gene DCLK2
- Measurement Conditions: concentration: 1 μM, replicates: in singlicate; n = 1
Just the number in %, nothing appended.

Lab note: compound Clc1cc(Cl)cc(Nc2ccnc(Nc3cc(Cl)cc(Cl)c3)n2)c1 tested on DCAMKL2; recorded %Inh was 0

Lab note: compound CCCc1ccc(S(=O)(=O)NC2CCN(c3ccnc(Nc4ccc(F)cc4)n3)C2)cc1 (centres unmarked) tested on DCAMKL2; recorded %Inh was 0

Lab note: compound Cl.c1ccc(-c2n[nH]cc2-c2ccnc(-c3ccc(CN4CCOCC4)cc3)c2)nc1 tested on DCAMKL2; recorded %Inh was 16

Lab note: compound O=C1NC(=O)C(N2CCc3ccccc32)=C1c1ccccc1Cl tested on DCAMKL2; recorded %Inh was 0

Lab note: compound Cc1ccc(NC(=O)Nc2cccc(Cl)c2)cc1-c1ccc(C(=O)Nc2ccncc2)cc1 tested on DCAMKL2; recorded %Inh was 0

Lab note: compound COc1ccc(Nc2nccc(-c3cccc(NC(=O)c4cc5cc(F)ccc5[nH]4)c3)n2)cc1 tested on DCAMKL2; recorded %Inh was 0

Lab note: compound Cc1cc(N2Cc3ccccc3C2)nc(Nc2ccc(S(=O)(=O)N3CCOCC3)cc2)n1.Cl tested on DCAMKL2; recorded %Inh was 0

Lab note: compound COc1cccc(NC(=O)NC2CCN(c3ccnc(Nc4ccc(F)cc4)n3)C2)c1 (centres unmarked) tested on DCAMKL2; recorded %Inh was 2

---

Field: %Inh. Provide a value for each of the compounds that follow.
- Test system: CSNK2A2
- Measurement Conditions: concentration: 1 μM, replicates: in singlicate; n = 1
Just the number in %, nothing appended.

Lab note: compound O=C(Nc1n[nH]c2cc(-c3cccc(F)c3F)ccc12)C1CC1 [SB-733894] tested on CSNK2A2; recorded %Inh was 29

Lab note: compound CC(C)(C)c1ccc(C(=O)Nc2cn3cc(-c4cccnc4)ccc3n2)cc1 tested on CSNK2A2; recorded %Inh was 17

Lab note: compound CC(=O)Nc1nc2cnc(Nc3cc(NC(=O)c4cccc(CCC#N)c4)ccc3C)nc2s1 tested on CSNK2A2; recorded %Inh was 9

Lab note: compound COc1ccc(Nc2nccc(NCCNC(=O)Nc3ccccc3F)n2)cc1 [GSK1379901] tested on CSNK2A2; recorded %Inh was 2

Lab note: compound O=C(Nc1n[nH]c2nc(-c3nccs3)c(Br)cc12)C1CC1 [SB-742251] tested on CSNK2A2; recorded %Inh was 36

Lab note: compound Cc1cccc(-c2nc(Nc3cccc(C(N)=O)c3)c3ccccc3n2)n1 [GW876019] tested on CSNK2A2; recorded %Inh was 19

Lab note: compound COc1ccc(CNC(=O)NC2CCN(c3ccnc(Nc4cc(OC)c(OC)c(OC)c4)n3)C2)cc1 (stereo not shown) [GSK1379748] tested on CSNK2A2; recorded %Inh was 9

Lab note: compound COc1cc2nccc(Nc3ccc(NC(=O)c4ccc(C)cc4)c(O)c3)c2cc1OC.Cl [GW440132] tested on CSNK2A2; recorded %Inh was 0

Lab note: compound CS(=O)(=O)c1ccc(-c2c(-c3ncn[nH]3)sc(N3CCOCC3)c2C#N)cc1 tested on CSNK2A2; recorded %Inh was 24

Lab note: compound O=C1NC(=O)C(N2CCc3ccccc32)=C1c1ccccc1Cl [SB-373598] tested on CSNK2A2; recorded %Inh was 15

---

- System: CAMK1D
- Measurement Conditions: concentration: 1 μM, replicates: in singlicate; n = 1
Field: %Inh. Provide a value for each of the compounds that follow.
Just the number in %, nothing appended.

Lab note: measured %Inh of COc1cccc(NC(=O)NC2CCN(c3ccnc(Nc4ccc(F)cc4)n3)C2)c1 (stereo not drawn) [GSK1379721] was 12

Lab note: measured %Inh of Cn1ccc2ncnc(Oc3cccc(C(=O)Nc4ccccc4)c3)c21 was 0

Lab note: measured %Inh of CS(=O)(=O)c1ccc(-c2c(-c3ncn[nH]3)sc(N3CCOCC3)c2C#N)cc1 was 16

Lab note: measured %Inh of Cc1cccc(-c2nc(Nc3ccc4[nH]ncc4c3)c3ccccc3n2)n1 [GW857175] was 0

Lab note: measured %Inh of COC(=O)c1c(-c2ccccc2)c2cc(OC)ccc2c(=O)n1Cc1ccccc1 was 20

Lab note: measured %Inh of Fc1cc(Cl)ccc1Nc1ccnc2cc(-c3ccc(CN4CCCCC4)o3)ccc12 [GW560116] was 8

Lab note: measured %Inh of Cc1csc(-c2nc(Nc3ccncc3)c3ccccc3n2)n1 [GW869640] was 0

Lab note: measured %Inh of Cl.NC(=O)c1cccc(Nc2nccc(Nc3ccc(Oc4cccc(Cl)c4)c(Cl)c3)n2)c1 [GW659008] was 17

Lab note: measured %Inh of CC(C)(C)c1ccc(C(=O)Nc2cn3cc(-c4cccnc4)ccc3n2)cc1 was 38

Lab note: measured %Inh of O=C(O)COc1ncnc2cc(-c3ccc4[nH]ncc4c3)sc12 was 0

Lab note: measured %Inh of O=S(=O)(c1ccc(-c2ccnc3[nH]ccc23)cc1)N1CCCC1 [GSK846226] was 31

Lab note: measured %Inh of COc1ccccc1-c1ccc2c(NC(=O)C3CC3)n[nH]c2n1 [SB-711239] was 12

---

- Test system: RSK1(Kin.Dom.1-N-terminal)
- Construct: gene RPS6KA1
- Measurement Conditions: concentration: 1 μM, replicates: in singlicate; n = 1
Reported Property: %Inh (%)
Just the number in %, nothing appended.

Lab note: measured %Inh of NC(=O)c1nnc2ccccc2c1N was 31

Lab note: measured %Inh of Cc1cc(NCC(c2ccccc2)c2ccccc2)nc(NCc2ccc(C(F)(F)F)cc2)n1 was 0

Lab note: measured %Inh of Fc1cc(Cl)ccc1Nc1ccnc2cc(I)ccc12 was 8

---

Field: %Inh. Provide a value for each of the molecules that follow.
- Tested on: NEK10
- Measurement Conditions: concentration: 1 μM, replicates: in singlicate; n = 1
Just the number in %, nothing appended.

Lab note: measured %Inh of O=C1NC(=O)C(N2CCc3ccccc32)=C1c1ccccc1Cl was 18

Lab note: measured %Inh of COc1ccc(CNC(=O)NC2CCN(c3ccnc(Nc4cc(OC)c(OC)c(OC)c4)n3)C2)cc1 (stereo not shown) was 6

Lab note: measured %Inh of Clc1cc(Cl)cc(Nc2ccnc(Nc3cc(Cl)cc(Cl)c3)n2)c1 was 4

Lab note: measured %Inh of Cc1ccc(NC(=O)Nc2cc(C(C)(C)C)nn2-c2ccccc2)cc1 was 19

---

Field: %Inh. Provide a value for each of the compounds that follow.
- Tested on: CSK
- Measurement Conditions: concentration: 1 μM, replicates: in singlicate; n = 1
Just the number in %, nothing appended.

Lab note: measured %Inh of Cl.c1ccc(-c2n[nH]cc2-c2ccnc(-c3ccc(CN4CCOCC4)cc3)c2)nc1 [GW776245] was 10

Lab note: measured %Inh of CC(=O)Nc1nc2cnc(Nc3cc(NC(=O)c4cccc(CCC#N)c4)ccc3C)nc2s1 was 0

Lab note: measured %Inh of COc1ccc2nc(-c3cccc(C)n3)nc(Nc3ccncc3)c2c1 [GSK204919] was 0

---

- System: EPHA7
- Measurement Conditions: concentration: 1 μM, replicates: in singlicate; n = 1
Field: %Inh. Provide a value for each of the compounds that follow.
Form field: result (number plus unit)

Lab note: measured %Inh of Cc1cccc(-c2nc(-c3ccc(S(C)(=O)=O)cc3)sc2-c2ccnc(NCCc3ccccc3)c2)c1 was 0%

Lab note: measured %Inh of Clc1cc(Cl)cc(Nc2ccnc(Nc3cc(Cl)cc(Cl)c3)n2)c1 was 8%

Lab note: measured %Inh of Cc1csc(-c2nc(Nc3ccncc3)c3ccccc3n2)n1 was 6%

Lab note: measured %Inh of COc1ccc(Nc2nccc(-c3cccc(NC(=O)c4cc5cc(F)ccc5[nH]4)c3)n2)cc1 was 10%

Lab note: measured %Inh of Cc1ccc(C(=O)Nc2ccc(Nc3ccnc4cc(-c5ccccn5)ccc34)cc2O)cc1.Cl was 4%

Lab note: measured %Inh of O=C(Nc1n[nH]c2nc(-c3nccs3)c(Br)cc12)C1CCCC1 was 10%

Lab note: measured %Inh of O=c1cc(N2CCOCC2)nc2n(Cc3cccc(Cl)c3Cl)ccn12 was 3%

Lab note: measured %Inh of CCn1c(-c2ccccn2)nc2cnccc21 was 0%

Lab note: measured %Inh of COc1cc(Nc2nccc(N3CCC(NC(=O)Nc4cc(C)ccc4C)C3)n2)cc(OC)c1OC (stereo not drawn) was 25%
